Hello, the source for this data is paper PMC4358367, in case you need it.

# assayedTarget: T1, AnkB_repeats site 1 mutant 'FF' (Phe131 and Phe164 to Gln) (human, UniProt Q01484 28-873, Phe131 substituted with Gln | Phe164 substituted with Gln)
# T1 sequence: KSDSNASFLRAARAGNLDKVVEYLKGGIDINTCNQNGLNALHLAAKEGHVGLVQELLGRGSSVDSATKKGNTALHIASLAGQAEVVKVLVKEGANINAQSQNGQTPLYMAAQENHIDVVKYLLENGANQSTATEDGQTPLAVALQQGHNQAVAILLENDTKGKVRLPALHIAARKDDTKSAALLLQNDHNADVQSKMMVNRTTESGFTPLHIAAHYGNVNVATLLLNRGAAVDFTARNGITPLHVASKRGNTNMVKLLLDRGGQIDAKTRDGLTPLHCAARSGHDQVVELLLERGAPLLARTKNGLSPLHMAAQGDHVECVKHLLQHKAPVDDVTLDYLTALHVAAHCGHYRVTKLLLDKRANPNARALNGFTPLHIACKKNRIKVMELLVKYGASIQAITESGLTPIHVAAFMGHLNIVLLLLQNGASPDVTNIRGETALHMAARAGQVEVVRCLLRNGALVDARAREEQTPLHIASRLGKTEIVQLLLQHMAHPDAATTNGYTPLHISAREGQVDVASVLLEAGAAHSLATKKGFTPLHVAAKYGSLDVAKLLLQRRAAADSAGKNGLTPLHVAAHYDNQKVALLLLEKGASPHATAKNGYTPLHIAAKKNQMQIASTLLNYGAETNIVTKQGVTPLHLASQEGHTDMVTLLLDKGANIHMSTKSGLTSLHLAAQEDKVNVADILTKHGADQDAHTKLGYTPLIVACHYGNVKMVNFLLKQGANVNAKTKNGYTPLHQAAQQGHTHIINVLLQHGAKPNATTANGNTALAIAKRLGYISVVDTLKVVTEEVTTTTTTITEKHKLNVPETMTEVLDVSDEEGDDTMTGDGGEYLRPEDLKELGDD
# assayMethodText: FP
Where no end group is shown, it is not given here.
readoutLabel: Kd (µM)
Reply numerically in µM, unit not repeated.

Record ELQDFGPGYSDEEPDPGREEEDLADEMICITTL (peptide, UniProt Q99246-4 2134-2166, looked up, also: FITC label (position not given here), voltage-gated calcium channel Cav1.3, mouse, residues 2134-2166; also called voltage-gated calcium channel Cav1.3 peptide; source: synthetic peptide (commercially synthesized)) [Cav1.3 peptide (mouse Cav1.3 residues 2134–2166), FITC-labeled] , field Kd: 3.3
